system-under-test: LMP2/β1i (Homo sapiens, UniProt P28065+P40306)
method: Proteasome inhibitory activity, subunit-specific cell lysate IC50, LMP2
Format: biochemical
Parameters: Subunit-Specific Cell lysate IC50 (μM); endogenous in cells
cond: read-out: Subunit-Specific Cell lysate IC50, LMP2 (β1i)
quantity-kind: IC50 (nM)

[[record]]
compound = "CC(=O)NCC(=O)N1CCC[C@H]1C(=O)N[C@@H](Cc1ccc(NC(=O)CN2CCOCC2)cc1)C(=O)N[C@@H](CC(C)C)C(=O)[C@@]1(C)CO1 [Analogue 29]"
quantity_kind = "IC50"
result = 90

[[record]]
compound = "CCc1ccc(C[C@H](NC(=O)[C@@H]2CCCN2C(=O)CNC(C)=O)C(=O)N[C@@H](CC(C)C)C(=O)[C@@]2(C)CO2)cc1 [Analogue 9]"
quantity_kind = "IC50"
result = 130

[[record]]
compound = "CC(C)C[C@H](NC(=O)[C@H](Cc1ccc2ccccc2c1)NC(=O)[C@@H]1CCCN1C(=O)CNC(=O)c1cnccn1)C(=O)[C@@]1(C)CO1 [Analogue 23]"
quantity_kind = "IC50"
result = 60


----------
system-under-test: LMP7/β5i (Homo sapiens, UniProt P20618+P28062)
method: Proteasome activity assay, purified 20S proteasome, Ac-ANW-AMC
pIC50: −log10 of the molar value.
This listing pairs compounds with measured pIC50.
quantity-kind: pIC50

[[record]]
chemical_string = "CC(=O)NCC(=O)N1CCC[C@H]1C(=O)N[C@@H](Cc1ccccc1)C(=O)N[C@@H](CC(C)C)C(=O)[C@@]1(C)CO1"
result = "< 5.00"

[[record]]
chemical_string = "CC(C)C[C@H](NC(=O)[C@H](Cc1ccccc1)NC(=O)[C@@H]1CCCN1C(=O)CNC(=O)c1cnccn1)C(=O)[C@@]1(C)CO1"
result = "< 5.00"


----------
Entries and their pIC50
system-under-test: LMP2/β1i (Homo sapiens, UniProt P28065+P40306)
method: Proteasome inhibitory activity, subunit-specific cell lysate IC50, LMP2
Format: biochemical
Design: Subunit-Specific Cell lysate IC50 (μM); endogenous in cells
cond: read-out: Subunit-Specific Cell lysate IC50, LMP2 (β1i)
pIC50: −log10 of the molar value.
quantity-kind: pIC50

[[record]]
chemical_string = "CC(=O)NCC(=O)N1CCC[C@H]1C(=O)N[C@@H](Cc1ccc(-c2ccccc2)cc1)C(=O)N[C@@H](CC(C)C)C(=O)[C@@]1(C)CO1"
result = 7.70

[[record]]
chemical_string = "Cc1cc(C(=O)NCC(=O)N2CCC[C@H]2C(=O)N[C@@H](CCc2ccccc2)C(=O)N[C@@H](CC(C)C)C(=O)[C@@]2(C)CO2)no1"
result = 6.89

[[record]]
chemical_string = "CC(=O)NCC(=O)N1CCC[C@H]1C(=O)N[C@@H](Cc1ccc2ccccc2c1)C(=O)N[C@@H](CC(C)C)C(=O)[C@@]1(C)CO1"
result = 7.52

[[record]]
chemical_string = "CC(=O)NCC(=O)N1CCC[C@H]1C(=O)N[C@@H](Cc1ccc(-c2ccccc2)cc1)C(=O)N[C@@H](CC(C)C)C(=O)[C@@]1(CO)CO1"
result = 6.19

[[record]]
chemical_string = "CC(=O)NCC(=O)N1CCC[C@H]1C(=O)N[C@@H](Cc1ccccc1)C(=O)N[C@@H](CC(C)C)C(=O)[C@@]1(CO)CO1"
result = 7.22

[[record]]
chemical_string = "CC(C)C[C@H](NC(=O)[C@H](Cc1ccc(-c2ccccc2)cc1)NC(=O)[C@@H]1CCCN1C(=O)CNC(=O)c1cnccn1)C(=O)[C@@]1(C)CO1"
result = 7.05

[[record]]
chemical_string = "CC(=O)NCC(=O)N1CCC[C@H]1C(=O)N[C@@H](Cc1ccncc1)C(=O)N[C@@H](CC(C)C)C(=O)[C@@]1(C)CO1"
result = 6.92

[[record]]
chemical_string = "Cc1ncc(C(=O)NCC(=O)N2CCC[C@H]2C(=O)N[C@@H](CCc2ccccc2)C(=O)N[C@@H](CC(C)C)C(=O)[C@@]2(C)CO2)s1"
result = 6.74

[[record]]
chemical_string = "Cc1ncc(C(=O)NCC(=O)N2CCC[C@H]2C(=O)N[C@@H](Cc2ccc(-c3ccccc3)cc2)C(=O)N[C@@H](CC(C)C)C(=O)[C@@]2(C)CO2)s1"
result = 6.89

[[record]]
chemical_string = "CC(C)C[C@H](NC(=O)[C@H](Cc1ccccc1)NC(=O)[C@@H]1CCCN1C(=O)CN1CCOCC1=O)C(=O)[C@@]1(C)CO1"
result = 6.00

[[record]]
chemical_string = "CC(=O)NCC(=O)N1CCC[C@H]1C(=O)N[C@@H](Cc1ccc2ccccc2c1)C(=O)N[C@@H](CC(C)C)C(=O)[C@@]1(CO)CO1"
result = 5.66

[[record]]
chemical_string = "CC(=O)NCC(=O)N1CCC[C@H]1C(=O)N[C@@H](CCc1ccccc1)C(=O)N[C@@H](CC(C)C)C(=O)[C@@]1(C)CO1"
result = 7.22


----------
system-under-test: LMP2/β1i (Homo sapiens, UniProt P28065+P40306)
method: Proteasome inhibitory activity, subunit-specific cell lysate IC50, LMP2
Assay type: biochemical
Design: Subunit-Specific Cell lysate IC50 (μM); endogenous in cells
cond: read-out: Subunit-Specific Cell lysate IC50, LMP2 (β1i)
pIC50: −log10 of the molar value.
The entries below come with measured pIC50 values attached.
quantity-kind: pIC50

[[record]]
molecule = "CC(C)C[C@H](NC(=O)[C@H](Cc1ccccc1)NC(=O)[C@@H]1CCCN1C(=O)c1cccc(O)n1)C(=O)[C@@]1(C)CO1"
system_under_test = "LMP2/β1i (Homo sapiens, UniProt P28065+P40306)"
result = 6.00

[[record]]
molecule = "CC(C)C[C@H](NC(=O)[C@H](Cc1ccccc1)NC(=O)[C@@H]1CCCN1C(=O)CNC(=O)S(C)(=O)=O)C(=O)[C@@]1(C)CO1"
system_under_test = "LMP2/β1i (Homo sapiens, UniProt P28065+P40306)"
result = 6.96

[[record]]
molecule = "CC(C)C[C@H](NC(=O)[C@H](Cc1ccccc1)NC(=O)[C@@H]1CCCN1C(=O)CNC(=O)c1cnccn1)C(=O)[C@@]1(C)CO1"
system_under_test = "LMP2/β1i (Homo sapiens, UniProt P28065+P40306)"
result = 7.10

[[record]]
molecule = "Cc1ncc(C(=O)NCC(=O)N2CCC[C@H]2C(=O)N[C@@H](Cc2ccc3ccccc3c2)C(=O)N[C@@H](CC(C)C)C(=O)[C@@]2(C)CO2)s1"
system_under_test = "LMP2/β1i (Homo sapiens, UniProt P28065+P40306)"
result = 7.05

[[record]]
molecule = "CC(C)C[C@H](NC(=O)[C@H](CCc1ccccc1)NC(=O)[C@@H]1CCCN1C(=O)CNC(=O)c1cnccn1)C(=O)[C@@]1(C)CO1"
system_under_test = "LMP2/β1i (Homo sapiens, UniProt P28065+P40306)"
result = 7.00

[[record]]
molecule = "CC(C)C[C@H](NC(=O)[C@H](Cc1ccccc1)NC(=O)[C@@H]1CCCN1C(=O)CNC(=O)C(F)(F)F)C(=O)[C@@]1(C)CO1"
system_under_test = "LMP2/β1i (Homo sapiens, UniProt P28065+P40306)"
result = 6.89

[[record]]
molecule = "CC(=O)NCC(=O)N1CCCCC1C(=O)N[C@@H](Cc1ccccc1)C(=O)N[C@@H](CC(C)C)C(=O)[C@@]1(C)CO1 (stereo partly drawn)"
system_under_test = "LMP2/β1i (Homo sapiens, UniProt P28065+P40306)"
result = 6.92

[[record]]
molecule = "CC(=O)NCC(=O)N1CCC[C@H]1C(=O)N[C@@H](Cc1cccc2ccccc12)C(=O)N[C@@H](CC(C)C)C(=O)[C@@]1(C)CO1"
system_under_test = "LMP2/β1i (Homo sapiens, UniProt P28065+P40306)"
result = 7.52

[[record]]
molecule = "CC(C)C[C@H](NC(=O)[C@H](Cc1ccccc1)NC(=O)[C@@H]1CCCN1C(=O)CNC(=O)c1cccc(O)n1)C(=O)[C@@]1(C)CO1"
system_under_test = "LMP2/β1i (Homo sapiens, UniProt P28065+P40306)"
result = 6.85

[[record]]
molecule = "CC(=O)NCC(=O)N1CC(F)(F)C[C@H]1C(=O)N[C@@H](Cc1ccccc1)C(=O)N[C@@H](CC(C)C)C(=O)[C@@]1(C)CO1"
system_under_test = "LMP2/β1i (Homo sapiens, UniProt P28065+P40306)"
result = 7.15

[[record]]
molecule = "Cc1ncc(C(=O)NCC(=O)N2CCC[C@H]2C(=O)N[C@@H](Cc2ccccc2)C(=O)N[C@@H](CC(C)C)C(=O)[C@@]2(C)CO2)s1"
system_under_test = "LMP2/β1i (Homo sapiens, UniProt P28065+P40306)"
result = 7.00

[[record]]
molecule = "CC(C)C[C@H](NC(=O)[C@H](Cc1ccccc1)NC(=O)[C@@H]1CCCN1C(=O)CN1CCOCC1)C(=O)[C@@]1(C)CO1"
system_under_test = "LMP2/β1i (Homo sapiens, UniProt P28065+P40306)"
result = 5.92

